# Tgt: ΔF508-CFTR (Homo sapiens, UniProt P13569, DEL508-508)
# Construct: expressed in transfected cells
# Sequence (P13569 with tags, fused parts or gaps DEL508-508): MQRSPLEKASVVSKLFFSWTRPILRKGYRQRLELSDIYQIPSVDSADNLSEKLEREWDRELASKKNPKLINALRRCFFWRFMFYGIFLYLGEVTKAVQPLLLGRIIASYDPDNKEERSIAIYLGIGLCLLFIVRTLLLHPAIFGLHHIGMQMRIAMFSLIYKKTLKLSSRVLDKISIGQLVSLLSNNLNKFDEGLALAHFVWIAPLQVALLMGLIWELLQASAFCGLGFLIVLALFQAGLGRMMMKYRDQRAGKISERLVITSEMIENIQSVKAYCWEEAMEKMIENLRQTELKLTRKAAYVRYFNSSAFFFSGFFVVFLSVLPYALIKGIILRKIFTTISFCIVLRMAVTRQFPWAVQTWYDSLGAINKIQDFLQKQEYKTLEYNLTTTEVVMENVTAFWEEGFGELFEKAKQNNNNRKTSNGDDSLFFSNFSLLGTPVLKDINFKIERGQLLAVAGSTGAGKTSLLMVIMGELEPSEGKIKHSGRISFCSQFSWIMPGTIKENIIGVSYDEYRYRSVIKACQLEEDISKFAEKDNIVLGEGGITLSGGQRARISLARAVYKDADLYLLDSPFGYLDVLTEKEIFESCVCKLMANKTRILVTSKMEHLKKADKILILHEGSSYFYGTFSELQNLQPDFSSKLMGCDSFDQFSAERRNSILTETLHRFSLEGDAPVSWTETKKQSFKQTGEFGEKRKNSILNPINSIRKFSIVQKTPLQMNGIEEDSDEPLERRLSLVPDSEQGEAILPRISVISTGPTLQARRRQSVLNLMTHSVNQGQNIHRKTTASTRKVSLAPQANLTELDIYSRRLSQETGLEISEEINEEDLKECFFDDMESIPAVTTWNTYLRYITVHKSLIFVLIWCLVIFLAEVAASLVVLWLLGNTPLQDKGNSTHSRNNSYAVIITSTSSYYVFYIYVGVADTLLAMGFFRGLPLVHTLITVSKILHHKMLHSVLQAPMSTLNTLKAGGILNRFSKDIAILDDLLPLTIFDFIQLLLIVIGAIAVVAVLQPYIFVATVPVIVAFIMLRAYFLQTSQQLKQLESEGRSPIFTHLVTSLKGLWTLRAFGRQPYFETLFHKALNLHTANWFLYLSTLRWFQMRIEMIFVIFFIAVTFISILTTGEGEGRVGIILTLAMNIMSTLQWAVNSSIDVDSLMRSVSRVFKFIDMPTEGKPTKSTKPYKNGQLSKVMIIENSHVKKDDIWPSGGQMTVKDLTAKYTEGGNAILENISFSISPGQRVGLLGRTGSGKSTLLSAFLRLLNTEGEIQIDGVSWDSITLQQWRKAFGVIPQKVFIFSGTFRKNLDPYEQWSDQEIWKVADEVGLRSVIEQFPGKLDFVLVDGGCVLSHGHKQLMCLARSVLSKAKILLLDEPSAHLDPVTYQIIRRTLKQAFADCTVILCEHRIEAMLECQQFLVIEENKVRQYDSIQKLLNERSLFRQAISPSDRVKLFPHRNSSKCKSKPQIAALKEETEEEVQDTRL
# Test method notes: Membrane potential optical assay (FRET voltage-sensor dyes, VIPR), identification of potentiator compounds
# Format: cell-based
# Study conditions: Table 3; assay not given; read-out: % Activity (% Efficacy, relative efficacy)
Recorded endpoint: Emax

Completed entries (count: 5):
smiles_string=CC(C)(C)c1cc(C(C)(C)C)c(NC(=O)c2c[nH]c3c(F)cccc3c2=O)cc1O result="25 to 100%"
smiles_string=COc1c(C(=O)Nc2ccc(C(C)(C)C)c(O)c2)cnc2ccccc12 result="25 to 100%"
smiles_string=CCCCc1ccccc1NC(=O)c1c[nH]c2ccccc2c1=O result="25 to 100%"
smiles_string=CC(C)(C)c1ccc(NC(=O)c2c[nH]c3cccc(O)c3c2=O)cc1F result="25 to 100%"
smiles_string=COc1ccc(OC)c(-c2ccccc2NC(=O)c2c[nH]c3ccccc3c2=O)c1 result="> 100%"

Please go through the list and note Emax for each compound.
1. CC1(c2cc(F)c(NC(=O)c3c[nH]c4cccc(C(F)(F)F)c4c3=O)cc2O)CCCCC1
2. CCOc1ccccc1NC(=O)c1c[nH]c2ccccc2c1=O

1: > 100%; 2: 25 to 100%

Please go through the list and note Emax for each compound.
1. CC(=O)n1ccc2ccc(NC(=O)c3c[nH]c4ccccc4c3=O)cc21
2. O=C(Nc1ccccc1-c1ccc(C(F)(F)F)cc1)c1c[nH]c2ccccc2c1=O

1: 25 to 100%; 2: 25 to 100%
